Source of measurements: paper PMC3684770

// NSC34 oxidative stress assay Toxic dose collected for NSC34 cells

{"molecule": "Oc1ccc(O)cc1 [Hydroquinone, reference compound]", "measuredOn": "NSC34 cells", "NSC34 oxidative stress assay Toxic dose": "None"}
{"molecule": "C[C@@H]1C(=O)O[C@H]2[C@H]1CC[C@@]1(C)C=CC(=O)[C@@]3(C)O[C@@]213 [Epoxy(4,5α)-4,5-dihydrosantonin]", "measuredOn": "NSC34 cells", "NSC34 oxidative stress assay Toxic dose": "3 µM"}
{"molecule": "CC(=O)CCC(=O)O [Levulinic acid]", "measuredOn": "NSC34 cells", "NSC34 oxidative stress assay Toxic dose": "None"}
{"molecule": "O=C(CCBr)N1CCN(C(=O)CCBr)CC1 [Pipobroman, reference compound]", "measuredOn": "NSC34 cells", "NSC34 oxidative stress assay Toxic dose": "none"}
{"molecule": "C=C(C)C1(O)OC(=O)C=C1OC (centres unmarked) [Penicillic acid]", "measuredOn": "NSC34 cells", "NSC34 oxidative stress assay Toxic dose": "none"}

----------
- Test system: C6 astrocyte cell line
- procedureText: C6 oxidative stress assay (serum withdrawal, DCF)
- conditionNotes: Rattus norvegicus, Astrocyte, read-out: C6 oxidative stress assay IC50
pIC50: −log10 of the molar value.
Catalogue of compounds with associated pIC50
observable: pIC50

{"compound": "C=C(C)C1(O)OC(=O)C=C1OC (centres unmarked)", "measuredNumber": 5.34}
{"compound": "O=C1C=C2C=C[C@@H]3C[C@@]2(O1)[C@H]1CCCCN31", "measuredNumber": 6.19}
{"compound": "C=CC(C1=CC(=O)C(OC)=CC1=O)c1ccccc1 (centres unmarked)", "measuredNumber": 5.60}
{"compound": "C=C(CC)C(=O)c1ccc(OCC(=O)O)c(Cl)c1Cl [Ethacrynic acid, reference compound]", "measuredNumber": 5.52}
{"compound": "COc1cc(O)c(C)c(O)c1 [2,6-Dihydroxy-4-methoxytoluene]", "measuredNumber": 5.28}
{"compound": "O=C(CCBr)N1CCN(C(=O)CCBr)CC1 [Pipobroman, reference compound]", "measuredNumber": 4.96}
{"compound": "COC(=O)[C@H](O)[C@H]1C(C)(C)[C@H](OC(C)=O)[C@@H]2CC3=C4CC(=O)O[C@@H](c5ccoc5)[C@]4(C)CC[C@@H]3[C@@]1(C)C2=O [Swietenolide 3 acetate]", "measuredNumber": 5.37}
{"compound": "C=C(C)/C=C1/C=CC(=O)C(C)=C1", "measuredNumber": 5.69}

----------
maximal fold induction values by entry
- Test system: Nrf2-ARE pathway
- procedureText: ARE reporter assay in CHO 4xARE-TK-GFP cells (Spectrum library hits)
- conditionNotes: Cricetulus griseus, CHO, 24 h, read-out: Fold GFP induction
- Procedure: The Z′ score was calculated as follows Z′=1−(3SD^++3SD^−)/(Ave^+–Ave^−) where SD^+ = standard deviation of positive control wells; SD^− = standard deviation of negative control wells; Ave^+ = average fluorescence reading of positive control wells; Ave^− = average fluorescence reading of negative control wells. […] The compounds were applied in triplicate to confluent cells in 96 well plates in serum free medium for 24 hours and the induction of GFP measured in a fluorescence plate reader. […]

{"compound": "C=C1CC[C@@H]2[C@](C)(CO)[C@H](O)CC[C@@]2(C)[C@@H]1C/C=C1/C(=O)OC[C@H]1O [Andrographolide]", "measuredOn": "Nrf2-ARE pathway", "maximal fold induction": 3.61}
{"compound": "C=CC(C1=CC(=O)C(OC)=CC1=O)c1ccccc1 (stereo not drawn)", "measuredOn": "Nrf2-ARE pathway", "maximal fold induction": 2.11}
{"compound": "COC(=O)[C@H](O)[C@H]1C(C)(C)[C@H](OC(C)=O)[C@@H]2CC3=C4CC(=O)O[C@@H](c5ccoc5)[C@]4(C)CC[C@@H]3[C@@]1(C)C2=O [Swietenolide 3 acetate]", "measuredOn": "Nrf2-ARE pathway", "maximal fold induction": 2.82}
